molecular target: T1, FcRn-p3 fusion protein (human, UniProt P55899 24-297; P61769 21-119); assay: phage ELISA pH6 (est.)
T1 construct: baculovirus expressed; coated on ELISA wells; not shown: amino terminal part of bacteriophage p3 protein and CVDE protein
T1 sequence (P55899 24-297, chain 1 of 2): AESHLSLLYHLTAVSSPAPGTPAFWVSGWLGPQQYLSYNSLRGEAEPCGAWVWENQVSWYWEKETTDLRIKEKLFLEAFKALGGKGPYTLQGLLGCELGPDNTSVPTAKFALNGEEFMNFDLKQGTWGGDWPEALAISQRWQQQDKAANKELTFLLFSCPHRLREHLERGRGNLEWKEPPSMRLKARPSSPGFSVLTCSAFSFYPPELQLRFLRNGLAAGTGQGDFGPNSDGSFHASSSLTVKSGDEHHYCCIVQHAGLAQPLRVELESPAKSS
T1 sequence (P61769 21-119, chain 2 of 2): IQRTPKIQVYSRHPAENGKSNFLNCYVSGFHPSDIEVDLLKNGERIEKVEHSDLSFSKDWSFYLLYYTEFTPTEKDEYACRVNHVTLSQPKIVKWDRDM
With a cut-off of 9 fold, any Ratio/FWT strictly below it is called MET; any Ratio/FWT meeting it or above is called NOT MET.

Prompt: Please check: Ratio/FWT for T6A_85 (other, EU numbering) CPPCPAPELLGGPSVFLFPPKPKDALMISRTPEVTCVVVDVSHEDPEVKFNWYVDGVEVHNAKTKPREEQYNSTYRVVSVLTVLHQDWLDGKEYKCKVSSKALPVPIEKTISKAKGQPREPQVYTLPPSRDELTKNQVSLTCLVKGFYPSDIAVEWESNGQPENNYKTTPPVLDSDGSFFLYSKLTVDKSRWQQGNVFSCSVMHEALHYHYTQKSLSLSPGK , strictly under 9 fold or not?
Completion: NOT MET

Prompt: Please check: Ratio/FWT for T3A_11 (other, EU numbering) CPPCPAPELLGGPSVFLFPPKPKDTLMISRTPEVTCVVVDVSHEDPEVKFNWYVDGVEVHNAKTKSREEQYNSTYRVVSVLTVLHQDWLDGKEYKCKVSNKVLPVPIEKTISKAKGQPREPQVYTLPPSRDELTKNQVSLTCLVKGFYPSDIAVEWESNGQPENNYKTTPPVLDSDGSFFLYSKLTVDKSRWQQGNVFSCSVMHEALHYHYTQKSLSLSPGK , strictly under 9 fold or not?
Completion: MET

Prompt: Please check: Ratio/FWT for C4A_15 (other, EU numbering) CPPCPAPDLLGGPSVFLFPPKPKDTLMISRTPEVTCVVVDVSHEDPEVKFNWYVDGVEVHNAKTKPREEQYNSTYRVVSVLTVLHQDWLDGKEYKCKVSNKALPAPIEKTISKAKGQPREPQVYTLPPSRDELTKNQVSLTCLVKGFYPSDIAVEWESNGQPENNYKTTPPVLDSDGSFFLYSKLTVDKSRWQQGNVFSCSVMHEALHYHYTQKSLSLSPGK , strictly under 9 fold or not?
Completion: MET

Prompt: Please check: Ratio/FWT for T4A_18 (other, EU numbering) CPPCPAPELLGGPSVFLFPPKPKDTLMISRTPEVTCVVVDVSHEDPEVKFNWYVDGVEVHNAKTKPREEQYNSTYRVVSVLTVLHQDWLDGKEYKCKVSNKALPAPIEKTISKAKGRPREPQVYTLPPSRDELTKNQVSLTCLVKGFYPSDIAVEWVSNGQPENNYKTTPPVLDSDGSFFLYSKLTVDKSRWQQGNVFSCSVMHEALHYHYTQKSLSLSPGK , strictly under 9 fold or not?
Completion: NOT MET

Prompt: Please check: Ratio/FWT for C7A_37 (other, EU numbering) CPPCPAPELLGGPSVLLFPPKPKDTLMISRTPEVTCVVVDVSHEDPEVKFNWYVDGVEVHNAKTKPREEQYNSTYRVVSVLTVLHQDWLDGKEYKCKVSNKALPAPIEKTISKAKGQPREPQVYTLPPSRDELTKNQVSLTCLVKGFYPSDIAVEWESNGQPEKNYKTTPPVLDSDGSFFLYSKLTVDKSRWQQGNVFSCSVMHEALHYHYTQKSLSLSPGK , strictly under 9 fold or not?
Completion: MET

Prompt: Please check: Ratio/FWT for T6A_13 (other, EU numbering) CPPCTAPELLGGPSVFLFPPKPKDTLMISRTPEVTCVVVDVSHEDPEVKFNWYVDGVEVHNAKTKPREEQYNSTYRVVSVLTVLHQDWLDGKEYKCKVSNKALPVPIEKTISKAKGQPREPQVYTLPPSRDELTKNRVSLTCLVKGFYPSDIAVEWESNGQPENNYKTTPPVLDSDGSFFLYSKLTVDKSRWQQGNVFSCSVMHEALHYHYTQKSLSLSPGK , strictly under 9 fold or not?
Completion: NOT MET

Prompt: Please check: Ratio/FWT for M3B_23 (other, EU numbering) CPPCPAPELLGGPSVLLFPPKPKDTLMISRTPEVTCVVEDVSHEDPEVKFNWYVDGVEVHNAKTKPREEQYNSTYRVVSVLPVLHQDWLNGKEYKCKVSNKALPAPIEKTISKAKGQPREPQVYTLPPSRDELTKNQVSLTCLVKGFYPSDIAVEWESNGQPENNYKTTPPVLDSDGSFFLYSKLTVDKSRWQQGNVFSCSVMHEALHNHYTQKSLSLSPGK , strictly under 9 fold or not?
Completion: MET

Prompt: Please check: Ratio/FWT for T5A_40 (other, EU numbering) CPPCTAPELLGGPSVFLFPPKPKDTLMISRTPEVTCVVEDVSHEDPEVKFNWYVDGVEVHNAKTKPREEQYNSTYRVVSVLPVLHQDWLNGKEYKCKVSNKALPAPIEKTISKAKGQPREPQVYTLPPSRDELTKNQVSLTCLVKGFYPSDIVVEWESNGQPENNYKTTPPVLDSDGSFFLYSKLTVDKSRWQQGTVFSCSVMHEALHNHYTQKSLSLSPGK , strictly under 9 fold or not?
Completion: NOT MET

These measurements were taken from patent USRE46585.
